System: S. typhimurium/E. coli reverse mutation, colony counts
Method Description: Bacterial reverse mutation test (aka Ames test) summary data;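 further: His-minus Salmonella and trp-minus E. coli WP2 uvrA pKM101 with or without liver S9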
Inconclusive results are not listed. Activity calls are given as the source filed them. How the calls were made is not given here.
Possible outcomes: YES = active, NO = inactive

- Molecule: "Nc1ccc(N)c2c1C(=O)c1c(N)ccc(N)c1C2=O"
  Assayed System: "S. typhimurium/E. coli reverse mutation, colony counts"
  Class: "YES"
- Molecule: "CC(=O)OCC(COC(C)=O)OC(C)=O"
  Assayed System: "S. typhimurium/E. coli reverse mutation, colony counts"
  Class: "NO"
- Molecule: "CCOCCOC(=O)C=Cc1ccc(OC)cc1"
  Assayed System: "S. typhimurium/E. coli reverse mutation, colony counts"
  Class: "NO"
- Molecule: "O=C(O)COc1cc(Cl)c(Cl)cc1Cl"
  Assayed System: "S. typhimurium/E. coli reverse mutation, colony counts"
  Class: "NO"
- Molecule: "O=C(NO)c1ccccc1"
  Assayed System: "S. typhimurium/E. coli reverse mutation, colony counts"
  Class: "YES"
- Molecule: "O=C(O)CC[N+](=O)[O-]"
  Assayed System: "S. typhimurium/E. coli reverse mutation, colony counts"
  Class: "YES"
- Molecule: "O=C(Cl)c1ccc([N+](=O)[O-])cc1"
  Assayed System: "S. typhimurium/E. coli reverse mutation, colony counts"
  Class: "YES"
- Molecule: "CCCCCC[C@@H](O)C/C=C\\CCCCCCCC(=O)O"
  Assayed System: "S. typhimurium/E. coli reverse mutation, colony counts"
  Class: "NO"
- Molecule: "CC(=O)OCc1ccc2c(c1)OCO2"
  Assayed System: "S. typhimurium/E. coli reverse mutation, colony counts"
  Class: "NO"
- Molecule: "CC1=CC(=C(c2ccc(N)cc2)c2ccc(N)cc2)C=CC1=N"
  Assayed System: "S. typhimurium/E. coli reverse mutation, colony counts"
  Class: "YES"
- Molecule: "O=[N+]([O-])c1ccccc1CCl"
  Assayed System: "S. typhimurium/E. coli reverse mutation, colony counts"
  Class: "YES"
- Molecule: "Oc1c(Cl)cccc1Cl"
  Assayed System: "S. typhimurium/E. coli reverse mutation, colony counts"
  Class: "NO"
- Molecule: "Clc1cc2c(cc1Cl)Oc1cc(Cl)c(Cl)cc1O2"
  Assayed System: "S. typhimurium/E. coli reverse mutation, colony counts"
  Class: "NO"
- Molecule: "CN(C)c1ccc(N=O)cc1"
  Assayed System: "S. typhimurium/E. coli reverse mutation, colony counts"
  Class: "YES"
- Molecule: "C=CCCCCCC"
  Assayed System: "S. typhimurium/E. coli reverse mutation, colony counts"
  Class: "NO"
- Molecule: "OC[C@H]1O[C@@H](Oc2ccc(O)cc2)[C@H](O)[C@@H](O)[C@@H]1O"
  Assayed System: "S. typhimurium/E. coli reverse mutation, colony counts"
  Class: "NO"
- Molecule: "O=S(=O)(c1ccc(Cl)cc1)c1ccc(Cl)cc1"
  Assayed System: "S. typhimurium/E. coli reverse mutation, colony counts"
  Class: "NO"
- Molecule: "CN(C)CCN(C)C"
  Assayed System: "S. typhimurium/E. coli reverse mutation, colony counts"
  Class: "NO"
- Molecule: "Oc1c(Cl)c(Cl)cc(Cl)c1Cl"
  Assayed System: "S. typhimurium/E. coli reverse mutation, colony counts"
  Class: "NO"
- Molecule: "Nc1ccc(Cl)cc1[N+](=O)[O-]"
  Assayed System: "S. typhimurium/E. coli reverse mutation, colony counts"
  Class: "YES"
- Molecule: "[O]=[Mo](=[O])=[O]"
  Assayed System: "S. typhimurium/E. coli reverse mutation, colony counts"
  Class: "NO"
- Molecule: "C=CCNC(N)=O"
  Assayed System: "S. typhimurium/E. coli reverse mutation, colony counts"
  Class: "YES"
- Molecule: "C=C(C)CCl"
  Assayed System: "S. typhimurium/E. coli reverse mutation, colony counts"
  Class: "YES"
- Molecule: "COc1cc(Cl)c(OC)cc1Cl"
  Assayed System: "S. typhimurium/E. coli reverse mutation, colony counts"
  Class: "YES"
- Molecule: "CC(C)(C#N)C(C)(C)C#N"
  Assayed System: "S. typhimurium/E. coli reverse mutation, colony counts"
  Class: "NO"
- Molecule: "COc1ccc(N)c(OC)c1"
  Assayed System: "S. typhimurium/E. coli reverse mutation, colony counts"
  Class: "YES"
- Molecule: "CCOP(=S)(OCC)Oc1nc(Cl)c(Cl)cc1Cl"
  Assayed System: "S. typhimurium/E. coli reverse mutation, colony counts"
  Class: "NO"
- Molecule: "O=c1cc(-c2ccccc2)oc2ccc3ccccc3c12"
  Assayed System: "S. typhimurium/E. coli reverse mutation, colony counts"
  Class: "NO"
- Molecule: "CCOC(=O)C1OC1(C)c1ccccc1 (stereo unspecified)"
  Assayed System: "S. typhimurium/E. coli reverse mutation, colony counts"
  Class: "NO"
- Molecule: "CCCCN(CCO)CCCC"
  Assayed System: "S. typhimurium/E. coli reverse mutation, colony counts"
  Class: "NO"
- Molecule: "Clc1ccc(C(Cl)(Cl)Cl)c(Cl)c1"
  Assayed System: "S. typhimurium/E. coli reverse mutation, colony counts"
  Class: "YES"
